Value source: paper PMC6058786

Biological target: purified Pin1 WW-domain (UniProt Q13526 5-39)
Sequence (Q13526 5-39): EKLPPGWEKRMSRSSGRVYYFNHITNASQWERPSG
Test: ITC
Value Kind: Kd

Exercise: Look at this binder and give its reported Kd. HKCRKAGVGQSWKENSPLNVS (not fully specified; phosphoserine at 258) [Ser258-phosphorylated TFCD-encoding peptide (ITC)]
Solution: ~137 µM
